// values below are reported HC50
Assay: Hemolytic activity in human RBC
Type: toxicity, cell-based, Erythrocyte
Conditions: human red blood cells (erythrocytes)
endpoint: HC50 (µg/mL)

# structure, measuredResult
data = [
    ("NCCCC[C@H](N)CN(CC(=O)Nc1cc(NC(=O)CN(C[C@@H](N)CCCCN)C(=O)CC23CC4CC(CC(C4)C2)C3)cc(C(=O)NCCNC(=O)CC23CC4CC(CC(C4)C2)C3)c1)C(=O)CC12CC3CC(CC(C3)C1)C2", 250),
    ("CCCCCCCCCNC(=O)[C@H](CCCCN)NC(=O)c1ccc(C(=O)N[C@@H](CCCCN)C(=O)NCCCCCCCCC)cc1", 180),
]
